# SUBJECT_OF_TEST: proton, potassium-adenosine triphosphatase (H^+,K^+-ATPase) (Sus scrofa (Pig), UniProt P19156)
# Sequence (P19156 2-1034): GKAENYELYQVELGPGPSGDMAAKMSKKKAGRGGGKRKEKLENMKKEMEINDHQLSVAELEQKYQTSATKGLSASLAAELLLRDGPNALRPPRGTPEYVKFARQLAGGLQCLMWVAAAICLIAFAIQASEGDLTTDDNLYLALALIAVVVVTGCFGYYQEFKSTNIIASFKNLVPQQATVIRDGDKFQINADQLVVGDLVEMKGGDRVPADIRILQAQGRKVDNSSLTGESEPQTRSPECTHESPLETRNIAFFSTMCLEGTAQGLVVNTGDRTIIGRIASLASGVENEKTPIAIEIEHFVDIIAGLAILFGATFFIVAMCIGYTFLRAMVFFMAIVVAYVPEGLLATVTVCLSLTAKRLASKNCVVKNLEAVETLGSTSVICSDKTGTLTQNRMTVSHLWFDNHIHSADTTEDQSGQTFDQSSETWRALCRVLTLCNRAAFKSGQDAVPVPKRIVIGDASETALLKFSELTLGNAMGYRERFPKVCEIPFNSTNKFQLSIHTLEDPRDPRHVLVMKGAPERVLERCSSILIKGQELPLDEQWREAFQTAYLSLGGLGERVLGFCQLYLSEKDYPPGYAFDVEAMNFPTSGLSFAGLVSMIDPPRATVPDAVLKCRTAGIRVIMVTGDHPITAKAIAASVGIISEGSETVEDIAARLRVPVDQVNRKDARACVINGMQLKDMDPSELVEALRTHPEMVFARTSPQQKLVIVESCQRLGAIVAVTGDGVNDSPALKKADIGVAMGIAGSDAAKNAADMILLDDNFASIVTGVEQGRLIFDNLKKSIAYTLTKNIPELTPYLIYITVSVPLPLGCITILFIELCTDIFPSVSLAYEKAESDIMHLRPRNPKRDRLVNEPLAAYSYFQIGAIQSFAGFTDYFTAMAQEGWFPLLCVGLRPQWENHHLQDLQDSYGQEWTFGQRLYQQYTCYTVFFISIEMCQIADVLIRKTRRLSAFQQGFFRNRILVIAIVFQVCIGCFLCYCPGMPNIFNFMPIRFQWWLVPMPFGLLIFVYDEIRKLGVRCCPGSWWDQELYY
# Sequence (P18434 whole entry partner): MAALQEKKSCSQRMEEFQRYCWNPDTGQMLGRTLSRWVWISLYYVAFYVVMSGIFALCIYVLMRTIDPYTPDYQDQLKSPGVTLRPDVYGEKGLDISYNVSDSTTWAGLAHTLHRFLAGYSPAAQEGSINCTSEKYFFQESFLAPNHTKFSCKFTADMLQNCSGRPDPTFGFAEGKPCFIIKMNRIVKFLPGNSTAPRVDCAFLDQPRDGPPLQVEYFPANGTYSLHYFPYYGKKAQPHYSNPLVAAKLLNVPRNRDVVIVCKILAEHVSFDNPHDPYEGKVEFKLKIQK
# MEASUREMENT_PROTOCOL: Proton potassium-adenosine triphosphatase (H+,K+-ATPase) inhibitory activity test
# Assay type: biochemical
# SETUP_CONDITIONS: swine gastric mucous membrane microsomal fraction, pH 6.5, 37° C.; read-out: H^+/K^+-ATPase inhibitory activity (IC50)
Where a name gives a salt, the structure may show the parent alone.
READOUT_NAME: log10 IC50 (log10 of the value in nM)
Values reflect log10 of reported IC50 (nM).

[ask] Need log10 IC50 of CNCc1cc(-c2ccccc2)n(S(=O)(=O)c2cccc(S(C)(=O)=O)c2)c1 [Example 140, hydrochloride] , thanks.
[reply] 1.89

* * *

# SUBJECT_OF_TEST: proton, potassium-adenosine triphosphatase (H^+,K^+-ATPase) (Sus scrofa (Pig), UniProt P19156)
# MEASUREMENT_PROTOCOL: Proton potassium-adenosine triphosphatase (H+,K+-ATPase) inhibitory activity test
# Assay type: biochemical
# SETUP_CONDITIONS: swine gastric mucous membrane microsomal fraction, pH 6.5, 37° C.; read-out: IC50
Structures can show the parent of a compound that is named as a salt.
READOUT_NAME: IC50 (nM)
Just the number in nM, nothing appended.

Examples with answers:
>>> result_value("CN(C)Cc1cc(-c2ccccc2)n(S(=O)(=O)c2ccc(C(F)(F)F)cc2)c1 [Example 12, hydrochloride]")
710
>>> result_value("CNCc1cc(-c2ccccc2)n(S(=O)(=O)c2ccc(F)cc2C)c1 [Example 11, hydrochloride]")
51

[ask] Fill in: IC50 of CNCc1cc(-c2cccc(C)c2)n(S(=O)(=O)c2ccc(C)cc2)c1 [Example 7, hydrochloride] is ___
[reply] 91

* * *

Measured IC50 accompanies every entry in the list below.
# SUBJECT_OF_TEST: proton, potassium-adenosine triphosphatase (H^+,K^+-ATPase) (Sus scrofa (Pig))
# MEASUREMENT_PROTOCOL: Proton potassium-adenosine triphosphatase (H+,K+-ATPase) inhibitory activity test
# Type: biochemical
# SETUP_CONDITIONS: swine gastric mucous membrane microsomal fraction, pH 6.5, 37° C.; read-out: H^+/K^+-ATPase inhibitory activity (IC50)
Structures can show the parent of a compound that is named as a salt.
Give just the number in nM; leave the unit off.

Example results:
>>> result_value("CNCc1cc(-c2ccccc2F)n(S(=O)(=O)c2cccc(S(C)(=O)=O)c2)c1 [Example 161, hydrochloride]")
62
>>> result_value("CNCc1cc(-c2ccsc2)n(S(=O)(=O)c2ccccc2)c1 [Example 30, hydrochloride]")
4.2
>>> result_value("CNCc1cc(-c2ccccc2)n(S(=O)(=O)c2cc3ccccc3s2)c1 [Example 152, hydrochloride]")
33

[ask] Find the recorded IC50 belonging to CNCc1cc(-c2ccccc2C)n(S(=O)(=O)c2cccnc2)c1 [Example 220, dihydrochloride] and report it.
[reply] 36

[ask] So what's the measured IC50 for this one? CNCc1cc(-c2ccccc2)n(S(=O)(=O)c2cccc(C(=O)NC)c2)c1 [Example 204, hydrochloride]
[reply] 86

[ask] Query (compound): CNCc1cc(-c2ccccc2F)n(S(=O)(=O)c2ccccc2F)c1 [Example 165, hydrochloride] ; field requested: IC50
[reply] 9

[ask] Entry under review: CNCc1cc(-c2ccccc2)n(S(=O)(=O)c2ccsc2)c1 [Example 43, hydrochloride] . Reported IC50?
[reply] 51
